System: P388
Test Method Notes: Inhibitory activity was tested against P388 cells
Format: functional, cell-based
Test Parameters: Mus musculus
Entries and their measured pIC50 follow.
Scale note: pIC50 = -log10(concentration in M).

Observe how each entry below is paired with its result.
>  <Input Smiles>
COc1cccc(/C=C2\CCCc3ccccc3C2=O)c1

>  <Property Name>
pIC50

>  <Measured Value>
4.86

$$$$
>  <Input Smiles>
Cc1cccc(/C=C2\CCc3ccccc3C2=O)c1

>  <Property Name>
pIC50

>  <Measured Value>
4.79

$$$$
>  <Input Smiles>
Cc1ccc(/C=C2\CCc3ccccc3C2=O)cc1

>  <Property Name>
pIC50

>  <Measured Value>
4.75

$$$$
>  <Input Smiles>
O=C1/C(=C/c2cccc(F)c2)Cc2ccccc21

>  <Property Name>
pIC50

>  <Measured Value>
4.40

$$$$
>  <Input Smiles>
O=C1/C(=C/c2ccc(Cl)cc2)CCCc2ccccc21

>  <Property Name>
pIC50

>  <Measured Value>
5.02

$$$$

Attention now shifts to the item below.
Qu. Write down pIC50 measured for item O=C1/C(=C/c2cccc([N+](=O)[O-])c2)CCc2ccccc21
Ans. 4.92

---

Test system: P388
Test Method Notes: Inhibitory activity was tested against P388 cells
Assay type: functional, cell-based
Test Parameters: Mus musculus
Catalogue of pIC50 readings, one per entry.
Just the number, please; pIC50 means minus log10 of the concentration in mol/L.

>  <Input Smiles>
O=C1/C(=C/c2cccc(F)c2)CCCc2ccccc21

>  <System Name>
P388

>  <pIC50>
4.96

$$$$
>  <Input Smiles>
Cc1cccc(/C=C2\CCCc3ccccc3C2=O)c1

>  <System Name>
P388

>  <pIC50>
4.70

$$$$
>  <Input Smiles>
O=C1/C(=C/c2cccc(Br)c2)CCc2ccccc21

>  <System Name>
P388

>  <pIC50>
4.78

$$$$

Qu. Identify pIC50 associated with the molecule O=C1/C(=C/c2cccc(F)c2)CCc2ccccc21
Ans. 4.51

---

Test system: CCRF-CEM
Test Method Notes: Inhibitory activity was tested against CEM cells
Assay type: functional, cell-based
Test Parameters: Homo sapiens
Listed here are molecules together with their documented pIC50.
// pIC50: -log10(molar conc.)

Qu. Given O=C1/C(=C/c2cccc([N+](=O)[O-])c2)CCc2ccccc21 , respond with its pIC50.
Ans. 5.28

Qu. Give recorded pIC50. O=C1/C(=C/c2ccc(Cl)cc2)CCCc2ccccc21
Ans. 4.82

Qu. // Input: O=C1/C(=C/c2ccc(Cl)cc2)CCc2ccccc21 . Output its pIC50 only.
Ans. 4.32

Qu. Give the reported value of pIC50 for this record: CN(C)c1ccc(/C=C2\CCCCCC2=O)cc1
Ans. 4.35

Qu. Supply pIC50 value. Item: O=C1/C(=C/c2ccc(Cl)cc2)Cc2ccccc21
Ans. 3.55

Qu. Identify the reported pIC50 for the following entry. O=C1/C(=C/c2cccc(F)c2)Cc2ccccc21
Ans. 4.41

---

As shown below, each of these compounds has a reported AP value.
Tested on: MOLT-4
Test Method Notes: Average potency against Molt4/C8cells
Assay type: functional, Homo sapiens

Reference set, count: 5
>  <Input Smiles>
Cc1cccc(/C=C2\CCc3ccccc3C2=O)c1

>  <AP>
158 µM

$$$$
>  <Input Smiles>
O=C1/C(=C/c2cccc(F)c2)Cc2ccccc21

>  <AP>
267 µM

$$$$
>  <Input Smiles>
COc1ccc(/C=C2\Cc3ccccc3C2=O)cc1

>  <AP>
267 µM

$$$$
>  <Input Smiles>
Cc1ccc(/C=C2\CCCCCC2=O)cc1

>  <AP>
186 µM

$$$$
>  <Input Smiles>
COc1ccc(/C=C2\CCCCCC2=O)cc1

>  <AP>
186 µM

$$$$

Qu. Note AP for the compound shown: O=C1/C(=C/c2ccc(Cl)cc2)CCCc2ccccc21
Ans. 66 µM

Qu. Please look at this compound and report its AP: O=C1/C(=C/c2ccc([N+](=O)[O-])cc2)CCCc2ccccc21
Ans. 66 µM

Qu. Identify measured AP associated with O=C1/C(=C/c2ccc(Cl)cc2)CCc2ccccc21
Ans. 158 µM
